tested on: primary human T-cells; test: Proliferation assay after 5 days (CellTiter-Glo, CD3 stimulation; PBS counter screen); format: cell-based; conditions: Homo sapiens, T-cell, 120 h, CD3 stimulation, 5 days; normalized to reference compound A1 as stimulator control = 100%, DMSO neutral control; read-out: Emax proliferation (% activation)
Entries and their measured Emax follow.
Just the number in %, nothing appended.

Worked cases, Emax given:
>>> reported_measurement("NC1CN(c2nnc(-c3cc4c(cc3F)S(=O)(=O)C[C@H](N)C(=O)N4Cc3ccc(Cl)cc3)o2)CC(F)(F)C1 (stereo partly shown)")
77
>>> reported_measurement("CC(C)(C)c1nnc(-c2ccc3c(c2)N(Cc2ccc(Oc4ccccc4)cc2)C(=O)[C@@H](N)CS3(=O)=O)o1")
78
>>> reported_measurement("CCc1coc(CN2C(=O)[C@@H](N)CS(=O)(=O)c3cc(F)c(-c4nnc(C(C)(C)C)o4)cc32)n1")
73

May I ask what Emax has been recorded for N[C@H]1CS(=O)(=O)c2cc(F)c(-c3nnc(N4CC5(C4)CC(F)(F)C5)o3)cc2N(Cc2ccc(Cl)cc2)C1=O ? 127

What does the record list as Emax for CC(C)(F)c1nc(-c2cc3c(cc2F)S(=O)(=O)C[C@H](N)C(=O)N3Cc2ccc(F)cc2)no1 ? 127

What value of Emax has been reported for the following molecule? COC1CCN(c2ccc(CN3C(=O)[C@@H](N)CS(=O)(=O)c4ccc(-c5nnc(C(C)(C)C)o5)cc43)cc2)CC1 113

Requested read-out: Emax. Entry: CC(C)(C)NC(=O)c1nc(-c2ccc3c(c2)N(Cc2ccc(OC(F)(F)F)cc2)C(=O)[C@@H](N)CS3(=O)=O)no1 65

---

system: primary human T-cells; assay: Proliferation assay after 5 days (CellTiter-Glo, CD3 stimulation; PBS counter screen); format: cell-based; conditions: Homo sapiens, T-cell, 120 h, primary human T-cells, CD3 stimulation, CellTiter-Glo after 5 days; EC50 of fitted sigmoidal curve; read-out: Tcell Proliferation CD3 EC50
measure: EC50 (µM)
Numbers only; they are read as µM.

Sample records with EC50:
>>> reported_measurement("CC#CCOc1ccc(CN2C(=O)[C@@H](N)CS(=O)(=O)c3ccc(-c4nnc(C(C)(C)C)o4)cc32)cc1")
1.02
>>> reported_measurement("CC(C)(C#N)c1nnc(-c2cc3c(cc2F)S(=O)(=O)C[C@H](N)C(=O)N3Cc2ccc(Cl)cc2)o1")
0.15
>>> reported_measurement("N[C@H]1CS(=O)(=O)c2ccc(-c3nnc(-c4ccc(F)cc4)o3)cc2N(Cc2ccc(Cl)cc2)C1=O")
0.817

In the following, a different compound is considered.
Could you share which EC50 value was measured for N[C@H]1CS(=O)(=O)c2cc(F)c(-c3nnc(N4CCOCC4)o3)cc2N(Cc2ccc(Cl)cc2)C1=O ? 0.309

---

Let's go through some recorded EC50 values for primary human T-cells together.

>>> reported_measurement("COC(F)(c1nc(-c2cc3c(cc2F)S(=O)(=O)C[C@H](N)C(=O)N3Cc2ccc(Cl)cc2)no1)C(F)(F)F (stereo partly drawn)")
"126 nM"

Need EC50, item Cc1cc(S(C)(=O)=O)ccc1-c1nc(-c2cc3c(cc2F)S(=O)(=O)C[C@H](N)C(=O)N3Cc2ccc(Cl)cc2)no1 234 nM

Entry under review: COC(=O)N1CCC(c2nnc(-c3ccc4c(c3)N(Cc3ccc(OC5CCCC5)cc3)C(=O)[C@@H](N)CS4(=O)=O)o2)C1 (stereo partly drawn) . Reported EC50? > 10000 nM

# input molecule: COC(F)(c1nc(-c2cc3c(cc2F)[S+]([O-])C[C@H](N)C(=O)N3Cc2ccc(Cl)cc2)no1)C(F)(F)F (stereo partly drawn) [Example 338] ; wanted: its EC50 1580 nM

Need EC50, item CC1(c2nc(-c3cc4c(cc3F)S(=O)(=O)C[C@H](N)C(=O)N4Cc3ccc(Cl)cc3)no2)CCN(CC(F)(F)F)CC1 443 nM

Please report the recorded EC50 for N[C@H]1CS(=O)(=O)c2ccc(-c3nnc(N4CC(CO)(CCl)C4)o3)cc2N(Cc2ccc(Cl)cc2)C1=O . 4050 nM

Report EC50 for CCc1coc(-c2cc3c(cc2F)S(=O)(=O)C[C@H](N)C(=O)N3Cc2ccc(Cl)cc2)n1 please. 16400 nM

Bench note: what EC50 did CC(C)(CN1CCOCC1)c1nnc(-c2cc3c(cc2F)S(=O)(=O)C[C@H](N)C(=O)N3Cc2ccc(Cl)cc2)o1 show? 348 nM

Which EC50 is reported for this molecule? N[C@H]1CS(=O)(=O)c2cc(F)c(-c3ccn[nH]3)cc2N(Cc2ccc(Cl)cc2)C1=O > 20000 nM

Fill blank: measured EC50 of the molecule CC(C)(F)c1nnc(-c2cc3c(cc2F)S(=O)(=O)C[C@H](N)C(=O)N3Cc2ccc(Cl)cc2)o1 is ____. 74.6 nM

Which EC50 value is on record for COC(=O)N1CC2CC(c3nnc(-c4ccc5c(c4)N(Cc4ccc(OC(F)(F)F)cc4)C(=O)[C@@H](N)CS5(=O)=O)o3)(C2)C1 ? 835 nM

Entry COC(F)(c1nc(-c2cc3c(cc2F)S(=O)(=O)C[C@H](N)C(=O)N3Cc2ccccc2)no1)C(F)(F)F (stereo partly drawn) : reported EC50 = ? 288 nM

Requested read-out: EC50. Entry: CC(C)(C)c1nnc(-c2ccc3c(c2)N(Cc2ccc(OC4CC4)cc2)C(=O)[C@@H](N)CS3(=O)=O)o1 3280 nM

Which measured EC50 value corresponds to CC(=O)N1CC(c2nnc(-c3cc4c(cc3F)S(=O)(=O)C[C@H](N)C(=O)N4Cc3ccc(Cl)cc3)o2)CC(F)(F)C1 (stereo partly drawn) ? 383 nM

---

tested on: primary human T-cells; assay: Proliferation assay after 5 days (CellTiter-Glo, CD3 stimulation; PBS counter screen); type: cell-based; conditions: Homo sapiens, T-cell, 120 h, CD3 stimulation, 5 days; normalized to reference compound A1 as stimulator control = 100%, DMSO neutral control; read-out: Emax proliferation (% activation)
# key: entry, value: Emax
Please give the number followed by its unit.

Some compounds with known Emax results, for comparison:
>>> reported_measurement("C#CCOCCOCCCC(C)(C)Nc1nc(-c2cc3c(cc2F)S(=O)(=O)C[C@H](N)C(=O)N3Cc2ccc(Cl)cc2)no1")
"99%"
>>> reported_measurement("N[C@H]1CS(=O)(=O)c2ccc(-c3nnc(-c4ccc(F)cc4)o3)cc2N(Cc2ccc(Cl)cc2)C1=O")
"62%"
>>> reported_measurement("CC(C)(C)c1nnc(-c2cc3c(cc2F)S(=O)(=O)C[C@H](N)C(=O)N3Cc2ccc(Cl)cc2CN)o1")
"3%"

In the following, a different compound is considered.
What Emax value was documented for this compound, N[C@H]1CS(=O)(=O)c2ccc(-c3nnc(N4[C@@H]5CC[C@H]4COC5)o3)cc2N(Cc2ccc(Cl)cc2)C1=O ? 96%

---

test system: primary human T-cells; test: Proliferation assay after 5 days (CellTiter-Glo, CD3 stimulation; PBS counter screen); format: cell-based; settings: Homo sapiens, T-cell, 120 h, primary human T-cells, CD3 stimulation, CellTiter-Glo after 5 days; EC50 of fitted sigmoidal curve; read-out: Tcell Proliferation CD3 EC50
# key: entry, value: EC50
Report the figure in µM without appending any unit label.

Example entries and their recorded answers appear below.
>>> reported_measurement("CC(C)(F)c1nc(-c2cc3c(cc2F)S(=O)(=O)C[C@H](N)C(=O)N3Cc2ccc(Cl)cc2)no1")
0.561
>>> reported_measurement("N[C@H]1CS(=O)(=O)c2ccc(-c3nnc(NC4CCCC(F)(F)C4)o3)cc2N(Cc2ccc(Cl)cc2)C1=O (stereo partly shown)")
1.13

Using the record for CC(=O)N[C@H]1CS(=O)(=O)c2cc(F)c(-c3nnn(C4CNCC(F)(F)C4)n3)cc2N(Cc2ccc(Cl)cc2)C1=O (stereo partly shown) , report its EC50. 6.39

Entry CC(C)(CN1CCS(=O)(=O)CC1)c1nnc(-c2cc3c(cc2F)S(=O)(=O)C[C@H](N)C(=O)N3Cc2ccc(Cl)cc2)o1 : reported EC50 = ? 1.51

Returns the measured EC50 for the input molecule. Input: CC(=O)N1CCC2CC2(c2nnc(-c3cc4c(cc3F)S(=O)(=O)C[C@H](N)C(=O)N4Cc3ccc(Cl)cc3)o2)C1 (stereo partly shown) 5.71

Name the reported EC50 value associated with the molecule CN1CC(n2nnc(-c3cc4c(cc3F)S(=O)(=O)C[C@H](N)C(=O)N4Cc3ccc(Cl)cc3)n2)CC(F)(F)C1 (stereo partly shown) 0.293

Returns the measured EC50 for the input molecule. Input: COC(F)(c1nnc(-c2ccc3c(c2)N(Cc2ccc(Cl)cc2)C(=O)[C@@H](N)CS3(=O)=O)o1)C(F)(F)F (stereo partly shown) 0.166
